Ref: patent US9957271B2

Target: SIRT1 (Homo sapiens)
Sequence (Q96EB6 whole entry): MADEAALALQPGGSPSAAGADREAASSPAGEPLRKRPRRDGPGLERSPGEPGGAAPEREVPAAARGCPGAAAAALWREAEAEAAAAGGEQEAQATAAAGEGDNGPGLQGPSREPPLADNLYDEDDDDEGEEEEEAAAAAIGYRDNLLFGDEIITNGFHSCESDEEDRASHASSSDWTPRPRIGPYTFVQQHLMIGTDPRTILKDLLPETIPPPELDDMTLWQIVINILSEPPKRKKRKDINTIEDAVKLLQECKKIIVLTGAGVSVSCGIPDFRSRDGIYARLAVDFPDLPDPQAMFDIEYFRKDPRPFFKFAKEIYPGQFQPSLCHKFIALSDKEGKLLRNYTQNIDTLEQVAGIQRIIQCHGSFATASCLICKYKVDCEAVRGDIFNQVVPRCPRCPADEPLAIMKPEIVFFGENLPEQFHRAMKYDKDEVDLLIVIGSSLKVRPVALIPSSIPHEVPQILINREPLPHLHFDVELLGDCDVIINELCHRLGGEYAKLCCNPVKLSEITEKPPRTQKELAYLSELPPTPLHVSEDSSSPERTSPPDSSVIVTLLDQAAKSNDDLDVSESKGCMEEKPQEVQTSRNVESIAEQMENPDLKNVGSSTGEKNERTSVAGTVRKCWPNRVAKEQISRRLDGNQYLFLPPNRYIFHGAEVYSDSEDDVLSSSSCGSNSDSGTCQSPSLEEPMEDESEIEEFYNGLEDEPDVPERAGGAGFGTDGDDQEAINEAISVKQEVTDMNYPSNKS
Assay: Trp mass spectrometry assay of SIRT1 activity
Assay type: biochemical
Details: Trp assay; concentration giving 150% activation of SIRT1
readoutName: Trp EC1.5 (μM)

Solved entries (count: 10):
>  <molecule>
Cc1ncccc1NC(=O)c1cnn2ccc(-c3ccccc3OC(F)(F)F)nc12

>  <Trp EC1.5 (μM)>
A (EC1.5<1 μM)

$$$$
>  <molecule>
Cc1cc(C(=O)Nc2cnc3ccc(-c4ccccc4C(F)(F)F)nn23)nc(C)n1

>  <Trp EC1.5 (μM)>
B (EC1.5 1-25 μM)

$$$$
>  <molecule>
Cc1nc2c(OC[C@H](O)CO)cc(-c3ccccc3C(F)(F)F)nn2c1C(=O)Nc1ccncc1

>  <Trp EC1.5 (μM)>
A (EC1.5<1 μM)

$$$$
>  <molecule>
O=C(Nc1cncc(F)c1)c1cnc2ccc(N3CC[C@H](F)C3)nn12

>  <Trp EC1.5 (μM)>
B (EC1.5 1-25 μM)

$$$$
>  <molecule>
O=C(Nc1cccnc1)c1cnc2ccc(N3CCC(F)(F)C3)nn12

>  <Trp EC1.5 (μM)>
B (EC1.5 1-25 μM)

$$$$
>  <molecule>
CO[C@H]1CCN(c2ccc3ncc(C(=O)Nc4ccncc4F)n3n2)C1

>  <Trp EC1.5 (μM)>
B (EC1.5 1-25 μM)

$$$$
>  <molecule>
O=C(Nc1cnn2ccc(-c3ccccc3C(F)(F)F)nc12)c1cccc(CN2CCOCC2)n1

>  <Trp EC1.5 (μM)>
B (EC1.5 1-25 μM)

$$$$
>  <molecule>
O=C(Nc1cncc(OCC(O)CO)n1)c1cnc2ccc(-c3ccccc3C(F)(F)F)nn12 (stereo not drawn)

>  <Trp EC1.5 (μM)>
A (EC1.5<1 μM)

$$$$
>  <molecule>
CCNc1cccc(NC(=O)c2cnc3ccc(-c4ccccc4F)nn23)n1

>  <Trp EC1.5 (μM)>
A (EC1.5<1 μM)

$$$$
>  <molecule>
O=C(Nc1cnn2ccc(-c3ccccc3C(F)(F)F)nc12)c1ccncn1

>  <Trp EC1.5 (μM)>
C (EC1.5>25 μM)

$$$$

Qu. Supply reported Trp EC1.5 (μM) belonging to this molecule: Cc1ccc(NC(=O)c2cnn3ccc(-c4ccccc4OC(F)(F)F)nc23)cn1
Ans. A (EC1.5<1 μM)

Qu. Identify the reported Trp EC1.5 (μM) for the following entry. O=C(Nc1cnc2ccc(-c3ccccc3Cl)nn12)c1ncccn1
Ans. C (EC1.5>25 μM)

Qu. Entry Cc1nc(C(=O)Nc2cnc3ccc(-c4ccccc4Cl)nn23)c(C)s1 needs its Trp EC1.5 (μM) filled in; supply it.
Ans. C (EC1.5>25 μM)

---

Biological target: UniProt:Q96EB6
Assay: TAMRA based mass spectrometry assay of SIRT1 activity
Assay type: biochemical
Settings: TAMRA peptide substrate; percent maximum fold activation; read-out: TAMRA % Fold Act
Some molecules, each annotated with its measured Emax.

Use these answered entries as a reference point.
>  <molecule>
O=C(Nc1cnn2ccc(-c3ccccc3C(F)(F)F)nc12)c1cccc(O)n1 [Compound 520]

>  <Emax>
< 350%

$$$$
>  <molecule>
COc1nccc(NC(=O)c2cnn3ccc(-c4ccccc4C(F)(F)F)nc23)n1 [Compound 519]

>  <Emax>
≥ 350%

$$$$
>  <molecule>
Cc1cc(C)nc(NC(=O)c2c(C)nc3c(C)cc(-c4ccccc4OC(F)(F)F)nn23)c1 [Compound 493]

>  <Emax>
≥ 350%

$$$$
>  <molecule>
Cc1nc2ccc(-c3ccccc3C(F)(F)F)nn2c1C(=O)Nc1cccnn1 [Compound 462]

>  <Emax>
≥ 350%

$$$$
>  <molecule>
Cc1nn2ccc(-c3ccccc3C(F)(F)F)nc2c1NC(=O)c1ncccn1 [Compound 570]

>  <Emax>
< 350%

$$$$

Qu. Please report the measured Emax for Cc1nc(C(=O)Nc2cnc3cc(C)c(-c4ccccc4C(F)(F)F)nn23)c(C)s1 [Compound 445]
Ans. ≥ 350%
